System: RPMI-8226
Assay: NCI tumour cell line growth inhibition, 48 h
Active and inactive are the calls of the source. Cut-off read from the data, not from the text of the source: active = GI50 up to about 1.1 µM and inactive = higher.
The molecules listed here are annotated with their GI50.
Readout Label: GI50

Molecule	Readout Label	Observed Value
N=C1C=C(N)C(=O)c2[nH]c(=O)ccc21	GI50	2.15 µM (inactive)
CS(=O)(=O)C(C#N)c1nc2ccccc2nc1Cl (configuration not stated)	GI50	> 100 µM (inactive)
COCCOCOc1ccc(OCc2ccccc2)cc1	GI50	> 49.5 µM (inactive)
Cc1cc(O)nc(NN2C(Cl)C(=O)C2c2ccc(O)cc2)n1 (configuration not stated)	GI50	2.22 µM (inactive)
CCCCCCOc1ccc(NC2=C(Cl)C(=O)c3cccnc3C2=O)cc1	GI50	0.684 µM (active)
COc1ccc(-c2nc(-c3cnccn3)n(C3OC(CO)C(O)C(O)C3O)n2)cc1 (configuration not stated)	GI50	> 100 µM (inactive)
O=C1c2ccccc2C(=O)c2c1nc1ccccc1c2-c1cncc(-c2c3c(nc4ccccc24)C(=O)c2ccccc2C3=O)c1	GI50	0.361 µM (active)
CC(C)NC(=O)OCc1c(COC(=O)NC(C)C)n(C)c2c1ccc1cc(Cl)c(Cl)cc12	GI50	10.3 µM (inactive)
Cc1c2c(c(C)n1-c1ccccc1)C(=O)N(CCN1CCN(c3cccc(C(F)(F)F)c3)CC1)C2=O	GI50	21.5 µM (inactive)
N#Cc1ccc(Nc2cnc3ccc(N)cc3n2)cc1	GI50	> 100 µM (inactive)
O=[N+]([O-])C1CC/C(=N/O)c2nonc21 (configuration not stated)	GI50	> 10 µM (inactive)
O=C(O)CN1C(=O)C(Cc2ccc(O)cc2)N=C(c2cccc(O)c2)c2ccccc21 (configuration not stated)	GI50	> 100 µM (inactive)
Cc1cc2c(=O)cc(-c3ccncc3)oc2c(C(=O)O)c1C	GI50	> 100 µM (inactive)
Cc1cc2c(C)nn(Cc3ccc(Cl)cc3)c2c(C#N)c1C	GI50	> 100 µM (inactive)
CS(=O)(=O)C1(Br)S(=O)(=O)OCCOS1(=O)=O	GI50	> 100 µM (inactive)
CCCC1c2c(ccc3ccccc23)Oc2ccc3ccccc3c21	GI50	45.2 µM (inactive)
CO[C@@H]1C[C@H]2N3CC[C@@]2(c2cc4c(cc2C3)OCO4)[C@H]2O[C@@H]12	GI50	> 100 µM (inactive)
NCCSC1(O)C(=O)c2ccccc2-c2ccccc21 (configuration not stated)	GI50	0.0348 µM (active)
CC(C)CC(NC(=O)C(CSc1ccc([N+](=O)[O-])cc1)Cc1ccccc1)C(=O)Nc1ccccc1 (configuration not stated)	GI50	> 100 µM (inactive)
C[Si]12OCCCN(CCO1)CCO2	GI50	> 100 µM (inactive)
CC(=O)ON1C(=O)c2cccc3cccc(c23)C1=O	GI50	12.7 µM (inactive)
CCSc1nnc(Sc2c3ccccc3nc3ccccc23)s1	GI50	3.91 µM (inactive)

----------
System: KM12
Assay: NCI tumour cell line growth inhibition, 48 h
Activity calls are given as the source filed them. No stated cut-off is given here; in the data, active = GI50 up to about 1.1 µM and inactive = higher.
Outcomes: Yes (active), No (inactive)

Compound	Target Entity	Category
O=C(Nc1cccc(O)c1)C(=O)C(C(=O)c1ccc(Cl)c(Cl)c1)C1OC(=O)c2ccccc21 (centres undefined)	KM12	No
COc1cc(C#CC(=O)OC/C=C/c2ccc3c(c2)OCO3)cc(OC)c1OC	KM12	No
CC1=NN(c2ccccc2)C(=O)C1C(=O)C(=O)Nc1ccc(C)cc1C (centres undefined)	KM12	No
CC[C@]12C=CCN3CCC4(c5cc([C@@]6(C(=O)OC)CC7CN(CCc8c6[nH]c6ccccc86)C[C@@H]6CCCC[C@H]76)c(OC)cc5N(C)C4[C@](O)(C(=O)OC)C1OC(C)=O)[C@@H]32 (some centres undefined)	KM12	Yes
COC(=O)C(=O)C(C(=O)C(=O)Nc1ccc([N+](=O)[O-])cc1)c1nc2ccccc2nc1O (centres undefined)	KM12	No
Cc1cc(O)nc(NN2C(Cl)C(=O)C2c2ccc(O)cc2)n1 (centres undefined)	KM12	No
Cc1ccc(NC(=O)/C(Cl)=C(/Cl)C(=O)O)cc1	KM12	No
Oc1cc(-c2cccc(Cl)c2)nc2cc3c(cc12)OCO3	KM12	Yes
CCOP(=O)(OCC)C1CCCOC1=O (centres undefined)	KM12	No
